# systemTested: Serine/threonine-protein kinase pim-3 (Homo sapiens)
# testContext: at 1 µM
# Description: GSK_PKIS: PIM3 mean inhibition at 1 uM [Nanosyn]
Documented inhibition across a set of compounds

[
  {
    "molecule": "COc1ccc(-c2coc3ncnc(N)c23)cc1",
    "inhibition (%)": -1.2
  },
  {
    "molecule": "CS(=O)(=O)Nc1ccc(N/C=C2\\C(=O)Nc3ccccc32)cc1",
    "inhibition (%)": 2.02
  },
  {
    "molecule": "O=C1NC(=O)C(N2CCc3ccccc32)=C1c1ccc(Cl)cc1",
    "inhibition (%)": -2.25
  },
  {
    "molecule": "COc1cc2ncn(-c3cc(O[C@H](C)c4ccccc4Cl)c(C(N)=O)s3)c2cc1OC",
    "inhibition (%)": 12.4
  },
  {
    "molecule": "Nc1nc(-c2ccccn2)c(-c2ccc3ncccc3n2)s1",
    "inhibition (%)": 2.63
  },
  {
    "molecule": "COc1ccccc1Nc1ncc(-c2ccccc2)o1",
    "inhibition (%)": 0.86
  },
  {
    "molecule": "CCn1c(-c2nonc2N)nc2cnc(Oc3cccc(NC(=O)c4ccc(OCCN5CCOCC5)cc4)c3)cc21",
    "inhibition (%)": 2.09
  },
  {
    "molecule": "[O-][S+]1CCN(Cc2ccc(-c3ccc4ncnc(Nc5ccc(OCc6ccccc6)c(F)c5)c4c3)o2)CC1",
    "inhibition (%)": -1.98
  },
  {
    "molecule": "COc1ccc(COc2ccc(Cc3cnc(N)nc3N)cc2OC)cc1",
    "inhibition (%)": 0.23
  },
  {
    "molecule": "COC(=O)Nc1nc2cc(Oc3cccc(NC(=O)Nc4cc(C(F)(F)F)ccc4F)c3)ccc2[nH]1",
    "inhibition (%)": 0.51
  }
]

* * *

Documented inhibition across a set of molecules
# systemTested: Homeodomain-interacting protein kinase 4 (Homo sapiens) (UniProt Q8NE63);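 further: reported as mean inhibition, part of the GSK PKIS dataset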
# Sequence (whole entry): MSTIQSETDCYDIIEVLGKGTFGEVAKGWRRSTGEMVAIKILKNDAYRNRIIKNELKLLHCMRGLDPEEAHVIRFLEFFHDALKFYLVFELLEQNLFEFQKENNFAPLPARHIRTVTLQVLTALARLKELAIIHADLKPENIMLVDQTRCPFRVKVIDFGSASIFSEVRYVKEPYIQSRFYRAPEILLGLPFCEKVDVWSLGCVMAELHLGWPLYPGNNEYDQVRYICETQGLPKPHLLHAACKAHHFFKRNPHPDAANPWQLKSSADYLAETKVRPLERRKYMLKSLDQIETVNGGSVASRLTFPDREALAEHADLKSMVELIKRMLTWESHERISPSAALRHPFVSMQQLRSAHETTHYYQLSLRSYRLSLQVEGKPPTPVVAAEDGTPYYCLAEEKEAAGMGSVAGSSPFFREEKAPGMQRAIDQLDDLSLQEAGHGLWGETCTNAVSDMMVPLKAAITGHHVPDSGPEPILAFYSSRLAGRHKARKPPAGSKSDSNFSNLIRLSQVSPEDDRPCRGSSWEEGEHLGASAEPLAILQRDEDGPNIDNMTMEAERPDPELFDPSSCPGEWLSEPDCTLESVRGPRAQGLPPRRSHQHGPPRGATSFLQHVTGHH
# testContext: at 0.1 µM

[
  {
    "molecule": "CC1=C(C(=O)Nc2ccc3[nH]ncc3c2)C(c2ccc(Cl)c(Cl)c2)CC(=O)N1 (stereo unspecified)",
    "inhibition [%]": 1
  },
  {
    "molecule": "Fc1cccc(COc2ccc(Nc3ncnc4cc(-c5ccc[nH]5)sc34)cc2Cl)c1",
    "inhibition [%]": -1.95
  },
  {
    "molecule": "CS(=O)(=O)CCNCc1ccc(-c2ccc3ncnc(Nc4ccc(OCc5ccccc5)c(Cl)c4)c3c2)o1",
    "inhibition [%]": 4.33
  },
  {
    "molecule": "NC(=O)c1ccc(-c2nc(-c3ccccn3)c(-c3ccc4c(c3)OCO4)[nH]2)cc1",
    "inhibition [%]": 1.68
  },
  {
    "molecule": "COc1cc2ncn(-c3cc(O[C@H](C)c4ccccc4Cl)c(C(N)=O)s3)c2cc1OC",
    "inhibition [%]": 11.2
  },
  {
    "molecule": "Cc1cc(O)cc(C)c1/C=C/c1cncc(-c2nn[nH]n2)c1",
    "inhibition [%]": 1.12
  },
  {
    "molecule": "CCc1cccc(NC(=O)Nc2ccc(Oc3ccc4nc(NC(=O)OC)[nH]c4c3)cc2)c1",
    "inhibition [%]": 7.33
  },
  {
    "molecule": "CS(=O)(=O)CCNCc1nc(-c2ccc3ncnc(Nc4ccc(F)c(Cl)c4)c3c2)cs1",
    "inhibition [%]": 3.32
  },
  {
    "molecule": "CCCN1CCC=C(c2ccc(Nc3nc(Nc4ccccc4C(N)=O)c4cc[nH]c4n3)c(C)c2)C1",
    "inhibition [%]": 15.1
  },
  {
    "molecule": "CS(=O)(=O)CCNCc1ccc(-c2ccc3ncnc(Nc4ccc(OCc5cccc(F)c5)c(C(F)(F)F)c4)c3c2)o1",
    "inhibition [%]": -1.19
  },
  {
    "molecule": "COc1ccc(-c2ccncc2)cc1C(N)=O",
    "inhibition [%]": 0.07
  },
  {
    "molecule": "CC(C)=Cc1cccc2c1/C(=N/Nc1ccc(S(N)(=O)=O)cc1)C(=O)N2",
    "inhibition [%]": 1.38
  },
  {
    "molecule": "CCn1c(-c2nonc2N)nc2ccncc21",
    "inhibition [%]": -0.89
  },
  {
    "molecule": "COc1cc(C)c(NC(=O)CN(C)C)cc1Nc1nc(Nc2cccc(F)c2C(N)=O)c2cc[nH]c2n1",
    "inhibition [%]": 15.9
  },
  {
    "molecule": "CC1=C(C(=O)Nc2ccc3[nH]ncc3c2)C(c2ccc(F)cc2)NC(=O)N1 (stereo unspecified)",
    "inhibition [%]": -0.2
  },
  {
    "molecule": "COc1cc(C=NNc2ncnc3c2cnn3-c2ccccc2)ccc1O",
    "inhibition [%]": 10.8
  },
  {
    "molecule": "NCc1ccc(-c2nc(-c3ccc(Cl)c(O)c3)c(-c3ccncc3)[nH]2)cc1",
    "inhibition [%]": 0.99
  },
  {
    "molecule": "Cn1cc(C=C2C(=O)Nc3cccnc32)c2ccccc21",
    "inhibition [%]": 1.64
  },
  {
    "molecule": "CCn1c(-c2nonc2N)nc2c(N3CCCC3)nccc21",
    "inhibition [%]": -0.26
  },
  {
    "molecule": "CCN1CCC(CC(=O)Nc2n[nH]c3nc(-c4cccs4)c(Br)cc23)CC1",
    "inhibition [%]": 2.06
  },
  {
    "molecule": "COc1ccc(COc2ccc(Cc3cnc(N)nc3N)cc2OC)cc1",
    "inhibition [%]": 2.52
  }
]
